- EXPERIMENT_NOTES: Cytotoxicity against mouse EAC cells assessed as nonviable cell at 10 ug/mL relative to doxorubicin
- Type: functional, Ehrlich
Reported Activity values are given for each entry in this list.
Field: numeric (%). Do not append units.

Value of Activity reported for the compound COc1cc(N2C(N)=C(C#N)C(c3ccccc3)C3=C2CC(C)(C)CC3=O)cc(OC)c1OC (stereo not drawn) is 0

Value of Activity reported for the compound COc1cc(N2C(N)=C(C#N)C(c3c(OC)ccc4ccccc34)C3=C2CC(C)(C)CC3=O)cc(OC)c1OC (stereo not drawn) is 0

Value of Activity reported for the compound COc1cc(N2C(N)=C(C#N)C(c3cccs3)C3=C2CC(C)(C)CC3=O)cc(OC)c1OC (stereo not drawn) is 5

These entries and their values trace back to ChEMBL document CHEMBL1156137.
